Taken from paper PMC9562916.

assay: PC content of red wine before and after in vitro simulated gastrointestinal digestion (HPLC); assay type: in vitro ADME; settings: Cabernet red wine, after simulated gastrointestinal digestion
Marks after values point to notes of the source that are not given here.
measurement_label: PC Contents, Cabernet, After Digestion

molecule="COc1cc(-c2[o+]c3cc(O)cc(O)c3cc2O[C@@H]2O[C@H](CO)[C@@H](O)[C@H](O)[C@H]2O)cc(OC)c1O [Malvidin-3-glc, malvidin-3-glucoside]" observed_result="153.43 ± 5.83 ^b mg/L"
molecule=COc1cc(-c2oc3cc(O)cc(O)c3c(=O)c2O[C@@H]2O[C@H](CO)[C@@H](O)[C@H](O)[C@H]2O)ccc1O observed_result="10.82 ± 0.32 ^b mg/L"
molecule="CCOC(=O)c1cc(O)c(O)c(O)c1 [Ethyl gallate]" observed_result="38.42 ± 1.88 ^b mg/L"
molecule="O=c1c(O[C@@H]2O[C@H](CO)[C@@H](O)[C@H](O)[C@H]2O)c(-c2ccc(O)c(O)c2)oc2cc(O)cc(O)c12 [Isoquercetin]" observed_result="13.46 ± 0.59 ^b mg/L"
molecule="OC[C@H]1O[C@@H](Oc2cc3c(O)cc(O)cc3[o+]c2-c2cc(O)c(O)c(O)c2)[C@H](O)[C@@H](O)[C@@H]1O [Delphinidin-3-glc, delphinidin-3-glucoside]" observed_result="2.96 ± 0.09 ^b mg/L"
molecule=O=C(/C=C/c1ccc(O)c(O)c1)O[C@@H](C(=O)O)[C@@H](O)C(=O)O observed_result="3.01 ± 0.17 ^b mg/L"
molecule=O=C(O)c1cc(O)c(O)c(O)c1 observed_result="9.08 ± 0.44 ^b mg/L"
molecule="O=c1c(OC2O[C@H](CO)[C@@H](O)[C@H](O)[C@H]2O)c(-c2cc(O)c(O)c(O)c2)oc2cc(O)cc(O)c12 (stereo partly drawn)" observed_result="36.91 ± 1.10 ^b mg/L"
molecule=COc1cc(-c2[o+]c3cc(O)cc(O)c3cc2O[C@@H]2O[C@H](COC(C)=O)[C@@H](O)[C@H](O)[C@H]2O)cc(OC)c1O observed_result="39.8 ± 1.51 ^b mg/L"
molecule="O=c1c(O[C@@H]2O[C@H](CO)[C@@H](O)[C@H](O)[C@H]2O)c(-c2ccc(O)c(O)c2)oc2cc(O)cc(O)c12 [Quercetin-3-glc]" observed_result="202.22 ± 10.52 ^b mg/L"
molecule="CC(=O)OCC1OC(Oc2cc3c(O)cc(O)cc3[o+]c2-c2cc(O)c(O)c(O)c2)C(O)C(O)C1O (stereo not drawn)" observed_result="0.29 ± 0.014 ^b mg/L"
molecule=C[C@@H]1O[C@@H](O[C@H]2C(=O)c3c(O)cc(O)cc3O[C@@H]2c2ccc(O)c(O)c2)[C@H](O)[C@H](O)[C@H]1O observed_result="28.22 ± 1.07 ^b mg/L"

---

experiment: PC content of red wine before and after in vitro simulated gastrointestinal digestion (HPLC); assay type: in vitro ADME; conditions: Helanshan red wine, after simulated gastrointestinal digestion
Marks after values point to notes of the source that are not given here.
Catalogue of PC Contents, Helanshan, After Digestion values
measurement_label: PC Contents, Helanshan, After Digestion

compound="O=c1c(O[C@@H]2O[C@H](CO)[C@@H](O)[C@H](O)[C@H]2O)c(-c2ccc(O)c(O)c2)oc2cc(O)cc(O)c12 [Isoquercetin]" observed_result="12.01 ± 0.37 ^b mg/L"
compound="COc1cc(-c2oc3cc(O)cc(O)c3c(=O)c2O[C@@H]2O[C@H](CO)[C@@H](O)[C@H](O)[C@H]2O)ccc1O [Isorhamnetin-3-glc]" observed_result="9.87 ± 0.47 ^b mg/L"
compound="C[C@@H]1O[C@@H](O[C@H]2C(=O)c3c(O)cc(O)cc3O[C@@H]2c2ccc(O)c(O)c2)[C@H](O)[C@H](O)[C@H]1O [Astilbin]" observed_result="24.63 ± 1.13 ^b mg/L"
compound="CCOC(=O)c1cc(O)c(O)c(O)c1 [Ethyl gallate]" observed_result="30.18 ± 0.94 ^b mg/L"
compound="CC(=O)OCC1OC(Oc2cc3c(O)cc(O)cc3[o+]c2-c2cc(O)c(O)c(O)c2)C(O)C(O)C1O (stereo not drawn) [Delphinidin-3-acglc]" observed_result="0.14 ± 0.007 ^b mg/L"
compound="OC[C@H]1O[C@@H](Oc2cc3c(O)cc(O)cc3[o+]c2-c2cc(O)c(O)c(O)c2)[C@H](O)[C@@H](O)[C@@H]1O [Delphinidin-3-glc, delphinidin-3-glucoside]" observed_result="2.63 ± 0.10 ^c mg/L"

---

test: Caco-2 transepithelial transport assay of digested red wine; type: in vitro ADME, human; settings: human, Caco-2, Apparent Permeability Coefficients, Cabernet
measurement_label: Papp at 6 h (×10⁻⁶ cm/s)

molecule="O=C(O)c1cc(O)c(O)c(O)c1 [Gallic acid]" unit_name="×10⁻⁶ cm/s" observed_result=31.7

---

test system: Caco-2 cell monolayer; assay: Caco-2 transepithelial transport assay of digested red wine; format: in vitro ADME, human; conditions: Cabernet red wine, digested sample, basolateral side of Caco-2 monolayer
Marks after values point to notes of the source that are not given here.
Catalogue of PC Contents, Cabernet, Transmembrane values
measurement_label: PC Contents, Cabernet, Transmembrane

molecule=C[C@@H]1O[C@@H](O[C@H]2C(=O)c3c(O)cc(O)cc3O[C@@H]2c2ccc(O)c(O)c2)[C@H](O)[C@H](O)[C@H]1O observed_result="1.11 ± 0.05 ^a mg/L"
molecule=COc1cc(-c2oc3cc(O)cc(O)c3c(=O)c2O[C@@H]2O[C@H](CO)[C@@H](O)[C@H](O)[C@H]2O)ccc1O observed_result="0.74 ± 0.03 ^a mg/L"
molecule="CC(=O)OCC1OC(Oc2cc3c(O)cc(O)cc3[o+]c2-c2cc(O)c(O)c(O)c2)C(O)C(O)C1O (centres unmarked)" observed_result="0.04 ± 0.002 ^a mg/L"
molecule="O=c1c(O[C@@H]2O[C@H](CO)[C@@H](O)[C@H](O)[C@H]2O)c(-c2ccc(O)c(O)c2)oc2cc(O)cc(O)c12 [Quercetin-3-glc]" observed_result="7.47 ± 0.23 ^a mg/L"
molecule="O=c1c(OC2O[C@H](CO)[C@@H](O)[C@H](O)[C@H]2O)c(-c2cc(O)c(O)c(O)c2)oc2cc(O)cc(O)c12 (some centres unmarked)" observed_result="0.81 ± 0.04 ^a mg/L"

---

Catalogue of PC Contents, Tianzhu, After Digestion values
assay: PC content of red wine before and after in vitro simulated gastrointestinal digestion (HPLC); assay type: in vitro ADME; conditions: Tianzhu red wine, after simulated gastrointestinal digestion
Marks after values point to notes of the source that are not given here.
measurement_label: PC Contents, Tianzhu, After Digestion

compound="O=C(O)c1cc(O)c(O)c(O)c1 [Gallic acid]" observed_result="6.91 ± 0.26 ^b mg/L"
compound="CC(=O)OCC1OC(Oc2cc3c(O)cc(O)cc3[o+]c2-c2cc(O)c(O)c(O)c2)C(O)C(O)C1O (stereo not shown) [Delphinidin-3-acglc]" observed_result="0.22 ± 0.008 ^b mg/L"
compound="COc1cc(-c2[o+]c3cc(O)cc(O)c3cc2O[C@@H]2O[C@H](COC(C)=O)[C@@H](O)[C@H](O)[C@H]2O)cc(OC)c1O [Malvidin-3-acglc]" observed_result="39.3 ± 1.30 ^b mg/L"
compound="O=C(/C=C/c1ccc(O)c(O)c1)O[C@@H](C(=O)O)[C@@H](O)C(=O)O [Caftaric acid]" observed_result="5.35 ± 0.23 ^b mg/L"
compound="C[C@@H]1O[C@@H](O[C@H]2C(=O)c3c(O)cc(O)cc3O[C@@H]2c2ccc(O)c(O)c2)[C@H](O)[C@H](O)[C@H]1O [Astilbin]" observed_result="25.36 ± 1.32 ^b mg/L"
compound="CCOC(=O)c1cc(O)c(O)c(O)c1 [Ethyl gallate]" observed_result="40.83 ± 1.51 ^b mg/L"
compound="O=c1c(O[C@@H]2O[C@H](CO)[C@@H](O)[C@H](O)[C@H]2O)c(-c2ccc(O)c(O)c2)oc2cc(O)cc(O)c12 [Quercetin-3-glc]" observed_result="188.45 ± 8.29 ^b mg/L"

---

assay: Caco-2 transepithelial transport assay of digested red wine; format: in vitro ADME, human; conditions: human, Caco-2, apical to basolateral, digested Helanshan red wine; read-out: Apparent Permeability Coefficients, Helanshan
measurement_label: Papp at 6 h (×10⁻⁶ cm/s)

molecule=C[C@@H]1O[C@@H](O[C@H]2C(=O)c3c(O)cc(O)cc3O[C@@H]2c2ccc(O)c(O)c2)[C@H](O)[C@H](O)[C@H]1O observed_result=2.37
molecule=O=c1c(O[C@@H]2O[C@H](CO)[C@@H](O)[C@H](O)[C@H]2O)c(-c2ccc(O)c(O)c2)oc2cc(O)cc(O)c12 observed_result=3.73
molecule=O=C(/C=C/c1ccc(O)c(O)c1)O[C@@H](C(=O)O)[C@@H](O)C(=O)O observed_result=8.77
molecule="Oc1cc(O)c2c(c1)O[C@H](c1ccc(O)c(O)c1)[C@H](O)C2 [Epicatechin]" observed_result=11.5
molecule="CCOC(=O)c1cc(O)c(O)c(O)c1 [Ethyl gallate]" observed_result=17.9
